tested on: human melanoma LOX cell line; test: Colony formation assay, human melanoma LOX; type: cell-based; conditions: Homo sapiens, LOX, 24 h, Table V; 24 h treatment; read-out: LOX (IC50)
Parameter: IC50 (mg/L)
Numeric answer only, unit mg/L assumed.

If you can, please state the reported IC50 value of CCN1C(=CC=c2sc(=Cc3sc4c5ccccc5ccc4[n+]3C)n(C)c2=O)Sc2ccc3ccccc3c21 . 0.064

CCn1c(=Cc2oc3c4ccccc4ccc3[n+]2CC)sc(=CC=C2N(C)c3ccccc3C2(C)C)c1=O , same question. 0.039

CCN1C(=CC=c2sc(=Cc3sc4c5ccccc5ccc4[n+]3CC)n(CC)c2=O)N(CC(F)(F)C(F)F)c2cc(C(F)(F)F)ccc21 , same question. 0.06

CCN1C(=CC=c2sc(=Cc3sc4c5ccccc5ccc4[n+]3CC)n(CC)c2=O)Sc2ccc3ccccc3c21 , same question. 0.09

CCn1c(=Cc2sc3ccccc3[n+]2CC)sc(=CC=C2SCCN2C)c1=O , same question. 0.064

CCN1C(=CC=c2sc(=Cc3sc4c5ccccc5ccc4[n+]3C)n(CC)c2=O)Sc2ccc3ccccc3c21 , same question. 0.075

CCN1CCSC1=CC=c1sc(=Cc2sc3ccc(OC)cc3[n+]2CC)n(CC)c1=O , same question. 0.06

CCn1c(=Cc2sc3ccccc3[n+]2CC)sc(=CC=C2N(C)c3ccccc3C2(C)C)c1=O , same question. 0.03

CCN1C(=CC=c2sc(=Cc3sc4ccccc4[n+]3CC)n(CC)c2=O)Sc2ccc3ccccc3c21 , same question. 0.05

* * *

test system: human bladder carcinoma EJ cell line; assay: Colony formation assay, human bladder carcinoma EJ; assay type: cell-based; settings: Homo sapiens, EJ, 24 h, Table IV; 24 h treatment; read-out: EJ (IC50)
Field: IC50. Provide a value for each of the compounds that follow.
Numeric answer only, unit µg/mL assumed.

If you can, please state the reported IC50 value of CCN1CCSC1=CC=c1sc(=Cc2sc3ccc(Cl)cc3[n+]2CC)n(CC)c1=O [Compound 123] . 0.13

CCN1CCSC1=CC=c1sc(=Cc2sc3ccccc3[n+]2CCOC)n(CC)c1=O [Compound 145] , same question. 0.082

CCN1C(=CC=c2sc(=Cc3sc4c5ccccc5ccc4[n+]3CC)n(CC)c2=O)Sc2ccc3ccccc3c21 [Compound 51] , same question. 0.04

CCN1C(=CC=c2sc(=Cc3sc4c5ccccc5ccc4[n+]3C)n(C)c2=O)Sc2ccc3ccccc3c21 [Compound 46] , same question. 0.082

CCN1C(=CC=c2sc(=Cc3sc4c5ccccc5ccc4[n+]3CC)n(C)c2=O)Sc2ccc3ccccc3c21 [Compound 45] , same question. 0.05

CCN1CCSC1=CC=c1sc(=Cc2sc3ccc(C)cc3[n+]2CC)n(CC)c1=O [Compound 124] , same question. 0.05

CCN1C(C)=CSC1=CC=c1sc(=Cc2sc3c4ccccc4ccc3[n+]2CC)n(CC)c1=O [Compound 97] , same question. 0.013

CCn1c(=Cc2sc3ccccc3[n+]2CC)sc(=CC=C2N(C)c3ccccc3C2(C)C)c1=O [Compound 206] , same question. 0.013

* * *

system: human colon carcinoma cell line CX-1; test: Colony formation assay, human colon carcinoma CX-1; type: cell-based; conditions: Table III; 24 h treatment, colony count after 7 to 10 days
// class 0 strictly below 0.05 µg/mL in CX-1 (IC50); class 1 otherwise

hey, is CX-1 (IC50) for this one >= 0.05 µg/mL? CCN1C(=CC=c2sc(=Cc3sc4c5ccccc5ccc4[n+]3C)n(CC)c2=O)Sc2ccc3ccccc3c21 [Compound 49] class 0

CCN1C(=CC=c2sc(=Cc3cc[n+](CC)c4ccccc34)n(CC)c2=O)C=Cc2cc(Cl)ccc21 [Compound 395] , same question. class 1

CCN1C(=CC=c2sc(=Cc3sc4c5ccccc5ccc4[n+]3CC)n(CC)c2=O)Sc2ccc3ccccc3c21 [Compound 51] , same question. class 0

CCN1C(=CC=c2sc(=Cc3cc[n+](CC)c4ccccc34)n(CC)c2=O)C=Cc2cc(Cl)ccc21 [Compound 396] , same question. class 1

CCN1C=CC=CC1=CC=c1sc(=Cc2sc3ccc4ccccc4c3[n+]2CC)n(CC)c1=O [Compound 278] , same question. class 0

CCN1C(=CC=c2sc(=Cc3sc4ccccc4[n+]3CC)n(CC)c2=O)Sc2ccc3ccccc3c21 [Compound 178] , same question. class 0

CCN1C(C)=CSC1=CC=c1sc(=C2CCC[n+]3c2sc2ccccc23)n(CC)c1=O [Compound 389] , same question. class 1

CCN1C(C)=CSC1=CC=c1sc(=Cc2sc3ccccc3[n+]2CC)n(CC)c1=O [Compound 96] , same question. class 0

CCN1CCSC1=CC=c1sc(=Cc2sc3c4ccccc4ccc3[n+]2CC)n(CC)c1=O [Compound 151] , same question. class 1

CCN1C(=CC=c2sc(=Cc3cc[n+](CC)c4ccccc34)n(CC)c2=O)C=Cc2ccccc21 [Compound 392] , same question. class 0

CCN1C(=CC=c2sc(=Cc3sc4c5ccccc5ccc4[n+]3CC)n(CC)c2=O)Sc2ccc3ccccc3c21 [Compound 54] , same question. class 0

CCn1c(=Cc2sc3c4ccccc4ccc3[n+]2CC)sc(=CC=C2Sc3ccc4ccccc4c3N2C)c1=O [Compound 56] , same question. class 1

CCN1C(=CC=c2sc(=Cc3sc4c5ccccc5ccc4[n+]3C)n(CC)c2=O)Sc2ccc3ccccc3c21 [Compound 52] , same question. class 0

CCN1CCSC1=CC=c1sc(=Cc2sc3c4ccccc4ccc3[n+]2CC)n(CC)c1=O [Compound 150] , same question. class 0

* * *

Field: IC50. Provide a value for each of the compounds that follow.
tested on: human pancreatic carcinoma CRL 1420 cell line; test: Colony formation assay, human pancreatic carcinoma CRL 1420; type: cell-based; conditions: Homo sapiens, 24 h, Table VII; 24 h treatment
Numeric answer only, unit µg/mL assumed.

Request: IC50, test system human pancreatic carcinoma CRL 1420 cell line, entry CCN1C(=CC=c2sc(=Cc3sc4c5ccccc5ccc4[n+]3CC)n(CC)c2=O)N(CC(F)(F)C(F)F)c2cc(C(F)(F)F)ccc21 [Compound 230] 0.05

CCn1c(=Cc2sc3ccccc3[n+]2CC)sc(=CC=C2N(C)c3ccccc3C2(C)C)c1=O [Compound 206] , same question. 0.03

CCn1c(=Cc2sc3ccc(Cl)cc3[n+]2CC)sc(=CC=C2N(C)c3ccccc3C2(C)C)c1=O [Compound 214] , same question. 0.04

* * *

system: normal monkey kidney epithelial cell line CV-1; assay: Colony formation assay, normal monkey kidney epithelial cells CV-1; details: Primates, Epithelial cell, read-out: CV-1 (IC50), Table III; 24 h treatment, colony count after 7 to 10 days
Field: IC50. Provide a value for each of the compounds that follow.
Numeric answer only, unit µg/mL assumed.

If you can, please state the reported IC50 value of CCn1c(=Cc2sc3c4ccccc4ccc3[n+]2C)sc(=CC=C2Sc3ccc4ccccc4c3N2C)c1=O . 20

CCn1c(=Cc2sc3ccccc3[n+]2CC)sc(=CC=C2SCCN2C)c1=O , same question. 20

CCN1CCSC1=CC=c1sc(=Cc2sc3ccc(Cl)cc3[n+]2CC)n(CC)c1=O , same question. 20

CCN1C(C)=CSC1=CC=c1sc(=C2CCC[n+]3c2sc2ccccc23)n(CC)c1=O , same question. 15

CCN1C=CC=CC1=CC=c1sc(=Cc2sc3ccc4ccccc4c3[n+]2CC)n(CC)c1=O , same question. 16

CCN1C=C(C)C=CC1=CC=c1sc(=Cc2sc3cc(C)c(C)cc3[n+]2CC)n(CC)c1=O , same question. 20

CCN1C(=CC=c2sc(=Cc3sc4c5ccccc5ccc4[n+]3C)n(CC)c2=O)Sc2ccc3ccccc3c21 , same question. 20

* * *

tested on: normal monkey kidney epithelial cell line CV-1; test: Colony formation assay, normal monkey kidney epithelial cells CV-1; settings: Primates, Epithelial cell, read-out: CV-1 (IC50), Table III; 24 h treatment, colony count after 7 to 10 days;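 also: colonies visualized by crystal violet staining, incubation at 37 °C, IC50 relative to untreated wells given culture medium alone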
Parameter: IC50 (µg/mL)
Numeric answer only, unit µg/mL assumed.

If you can, please state the reported IC50 value of CCN1C(=CC=c2sc(=Cc3sc4c5ccccc5ccc4[n+]3CC)n(CC)c2=O)Sc2ccc3ccccc3c21 . 10

CCn1c(=Cc2sc3cc(Cl)c(Cl)cc3[n+]2CC)sc(=CC=C2Sc3ccc4ccccc4c3N2C)c1=O , same question. 20

CCN1C=CC(=CC=c2sc(=Cc3sc4ccccc4[n+]3CC)n(CC)c2=O)C=C1 , same question. 20

CCN1C(=CC=c2sc(=Cc3sc4c([n+]3CC)CCCC4)n(CC)c2=O)Oc2ccccc21 [Compound A, reference compound] , same question. 2

CCN1C(=CC=c2oc(=Cc3sc(-c4ccccc4)c(-c4ccccc4)[n+]3CC)n(CC)c2=O)Oc2ccccc21 , same question. 2.5

CCN1C(C)=CSC1=CC=c1sc(=Cc2sc3c4ccccc4ccc3[n+]2CC)n(CC)c1=O , same question. 2
